For each entry below, report its self-aminoacylation value.
- Tested on: biotinyl-Val-oxazolone
- protocol notes: self-aminoacylation, catalytic enhancement (BVO) (fold over background); higher = more active; k-Seq, kA / k0A0; sequences stand for … in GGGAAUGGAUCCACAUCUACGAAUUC…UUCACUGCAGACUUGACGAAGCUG
Variants at the floor of the assay were thinned out.
Lab note: jot the number down without any unit.

IN: For the sequence shown here, CAGUUUGCUAAUAGUCGCGAG [Fam3.1 aminoacylation ribozyme variant] , give the reported self-aminoacylation.
OUT: 2.01

IN: Next up: CCCCACUUCAAGCAAUCGGAC [Fam1B.1 aminoacylation ribozyme variant]
OUT: 1.52

IN: Next up: AUUACCCUCCUCAUCGAGUGA [Fam2.1 aminoacylation ribozyme variant]
OUT: 2.08

IN: Next up: AAUACCCUGCUCAUCGAGUGA [Fam2.1 aminoacylation ribozyme variant]
OUT: 1.3

IN: Next up: CCACACUUCAAGCAACCGCUC [Fam1B.1 aminoacylation ribozyme variant]
OUT: 2.09

###

- Tested on: biotinyl-Leu-oxazolone
- protocol notes: self-aminoacylation, catalytic enhancement (BLO) (fold over background); higher = more active; k-Seq, kA / k0A0; sequences stand for … in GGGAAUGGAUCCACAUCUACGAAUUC…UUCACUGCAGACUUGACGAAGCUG
Fewer inactive variants are shown than the library holds.
measurement label: self-aminoacylation
Lab note: jot the number down without any unit.

IN: For the sequence shown here, AAGUUUGGUAAUAGUCCCAAG [Fam3.1 aminoacylation ribozyme variant] , give the reported self-aminoacylation.
OUT: 0.963

IN: Next up: AUGCACCUAGGUCAUCGGCUG [Fam2.2 aminoacylation ribozyme variant]
OUT: 1.83

IN: Next up: CUACUUCUAACAAUCGGCCUG [Fam1A.1 aminoacylation ribozyme variant]
OUT: 1.31

IN: Next up: CUCCUUCAAACAAGCGGUCUG [Fam1A.1 aminoacylation ribozyme variant]
OUT: 0.774

IN: Next up: AUUCUCCUAGGUCCUCGGGUG [Fam2.2 aminoacylation ribozyme variant]
OUT: 10.5

IN: Next up: AUUCAACUAGGUCCUCGGGUG [Fam2.2 aminoacylation ribozyme variant]
OUT: 7.66

IN: Next up: UUUCACCUAGGUCAGCGGGUG [Fam2.2 aminoacylation ribozyme variant]
OUT: 5.53

IN: Next up: AUCCUUCAAACAAUCGGUCUG [Fam1A.1 aminoacylation ribozyme variant]
OUT: 0.809

IN: Next up: AAGUUUGUUAAUAAUCGCAAG [Fam3.1 aminoacylation ribozyme variant]
OUT: 0.995

IN: Next up: AUUACCCUCGUCAUCGCGUGA [Fam2.1 aminoacylation ribozyme variant]
OUT: 6.51

IN: Next up: AAGUUGACUAAUAGUCGCAAG [Fam3.1 aminoacylation ribozyme variant]
OUT: 0.935

IN: Next up: AAGUUUGCUAAUAGUCGCUAC [Fam3.1 aminoacylation ribozyme variant]
OUT: 0.476

IN: Next up: CCACACUUCAACGAAUCGGUC [Fam1B.1 aminoacylation ribozyme variant]
OUT: 0.962

IN: Next up: AUUACCGUGGUCAUCGCGUGA [Fam2.1 aminoacylation ribozyme variant]
OUT: 21.5

IN: Next up: UCCCACUUCAAGCAAUCGGUC [Fam1B.1 aminoacylation ribozyme variant]
OUT: 1.59

IN: Next up: CAGUUUGCCAAUAGUCGCAAG [Fam3.1 aminoacylation ribozyme variant]
OUT: 1.91

IN: Next up: CUACUUCAUACAAUCGCUCUG [Fam1A.1 aminoacylation ribozyme variant]
OUT: 0.605

IN: Next up: CCACACGUCAGGCAAUCGGUC [Fam1B.1 aminoacylation ribozyme variant]
OUT: 1.81

###

- Test system: biotinyl-Ile-oxazolone
- protocol notes: self-aminoacylation, catalytic enhancement (BIO) (fold over background); higher = more active; k-Seq, kA / k0A0; sequences stand for … in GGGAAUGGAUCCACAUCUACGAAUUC…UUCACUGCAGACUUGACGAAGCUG
Variants at the floor of the assay were thinned out.
Would you mind labelling by self-aminoacylation? At or over 1 is MET, under is NOT MET.

IN: Hi, just wondering whether CCACACUCCAAGCAAUCAGUC [Fam1B.1 aminoacylation ribozyme variant] shows self-aminoacylation of 1 or higher.
OUT: NOT MET

IN: Next up: AUUGACCUAGGUCAACGGGUG [Fam2.2 aminoacylation ribozyme variant]
OUT: MET

IN: Next up: CUUUCCCUGGUCAUCGAGUGA [Fam2.1 aminoacylation ribozyme variant]
OUT: MET

IN: Next up: CCACACUUCAUGCAAUCGGGC [Fam1B.1 aminoacylation ribozyme variant]
OUT: MET

IN: Next up: CUACUUCAAACAAUCGCUCUU [Fam1A.1 aminoacylation ribozyme variant]
OUT: NOT MET

IN: Next up: AUUACCCUGUUCAUCGAGUUA [Fam2.1 aminoacylation ribozyme variant]
OUT: MET

IN: Next up: CUACGUCAAACUAUCGGUCUG [Fam1A.1 aminoacylation ribozyme variant]
OUT: MET

IN: Next up: AUUACCCUGGUCACAGAGUGA [Fam2.1 aminoacylation ribozyme variant]
OUT: MET

IN: Next up: CCACUAUUCAAGCAAUCGGUC [Fam1B.1 aminoacylation ribozyme variant]
OUT: MET

IN: Next up: CUACAGCAAACAAUCGGUCUG [Fam1A.1 aminoacylation ribozyme variant]
OUT: NOT MET

IN: Next up: AUUAGCCUGUUCAUCGAGUGA [Fam2.1 aminoacylation ribozyme variant]
OUT: MET

IN: Next up: CUUCUUCAAACAAUCGGUCUU [Fam1A.1 aminoacylation ribozyme variant]
OUT: NOT MET

IN: Next up: AUUACCCUGGUCAUCGAGGCA [Fam2.1 aminoacylation ribozyme variant]
OUT: MET

IN: Next up: CCACAGUUCAACCAAUCGGUC [Fam1B.1 aminoacylation ribozyme variant]
OUT: MET

IN: Next up: AUGCACCUAGGUGAUCGGGUG [Fam2.2 aminoacylation ribozyme variant]
OUT: MET

IN: Next up: CUAAUUCACACAAUCGGUCUG [Fam1A.1 aminoacylation ribozyme variant]
OUT: NOT MET

IN: Next up: CUACUCCAAACAAGCGGUCUG [Fam1A.1 aminoacylation ribozyme variant]
OUT: MET

IN: Next up: AUUCAGCUAGGUCGUCGGGUG [Fam2.2 aminoacylation ribozyme variant]
OUT: MET

###

- System: biotinyl-Trp-oxazolone
- protocol notes: self-aminoacylation, catalytic enhancement (BWO) (fold over background); higher = more active; k-Seq, kA / k0A0; sequences stand for … in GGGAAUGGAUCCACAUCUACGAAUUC…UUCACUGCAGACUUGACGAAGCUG
This sample holds only a part of the variants without activity.
For each entry below, report its self-aminoacylation value.
Lab note: jot the number down without any unit.

IN: For the sequence shown here, AAGUUUGCUAAUAGACGCGAG [Fam3.1 aminoacylation ribozyme variant] , give the reported self-aminoacylation.
OUT: 0.812

IN: Next up: AUUACCCGGGUCAUCGGGUGA [Fam2.1 aminoacylation ribozyme variant]
OUT: 12.4

IN: Next up: CCACAAUUAAAGCAAUCGGUC [Fam1B.1 aminoacylation ribozyme variant]
OUT: 0.66

IN: Next up: CCACACUUCAAGCGAUCAGUC [Fam1B.1 aminoacylation ribozyme variant]
OUT: 0.843

IN: Next up: AUUCGCCUAGAUCAUCGGGUG [Fam2.2 aminoacylation ribozyme variant]
OUT: 3.12

IN: Next up: CUACUCCAAACAAGCGGUCUG [Fam1A.1 aminoacylation ribozyme variant]
OUT: 0.584

IN: Next up: CGACACUCCAAGCAAUCGGUC [Fam1B.1 aminoacylation ribozyme variant]
OUT: 1.19

IN: Next up: AAGUUUGCUAAUAUUCUCAAG [Fam3.1 aminoacylation ribozyme variant]
OUT: 1.48

IN: Next up: CUACUUCAAAAAAUCGGUGUG [Fam1A.1 aminoacylation ribozyme variant]
OUT: 1.53

IN: Next up: ACUACCCUGGUCAUCGAGUGA [Fam2.1 aminoacylation ribozyme variant]
OUT: 45.2

IN: Next up: AUUACCCUGGUAAUCGGGUGA [Fam2.1 aminoacylation ribozyme variant]
OUT: 12.1

IN: Next up: CUCCUUCAAACUAUCGGUCUG [Fam1A.1 aminoacylation ribozyme variant]
OUT: 1.5

IN: Next up: CCACAGUUCAGGCAAUCGGUC [Fam1B.1 aminoacylation ribozyme variant]
OUT: 2.25

IN: Next up: CUACUGCAAACAAUUGGUCUG [Fam1A.1 aminoacylation ribozyme variant]
OUT: 0.956

IN: Next up: AUUAACCUAGGUCAUCAGGUG [Fam2.2 aminoacylation ribozyme variant]
OUT: 1.43

IN: Next up: CUACACUUCAAGCAAUCAGUC [Fam1B.1 aminoacylation ribozyme variant]
OUT: 6.32

IN: Next up: AAGUUUGCUAGUAGUCACAAG [Fam3.1 aminoacylation ribozyme variant]
OUT: 0.986

IN: Next up: AAGUUGGCUAAUACUCGCAAG [Fam3.1 aminoacylation ribozyme variant]
OUT: 1.45
